# Target: Clostridium hystolyticum collagenase (EC.3.4.23.3)
# Measurement notes: FALGPA hydrolysis, absorbance at […] nm
# Protocol conditions: FALGPA substrate (2 mM stock), 50 mM Tricine, 10 mM CaCl2, 400 mM NaCl, pH 7.5, 15 min preincubation
Measured metric: pIC50
Lab note — pIC50 values are minus log10 of concentrations in M.

Tested on Clostridium hystolyticum collagenase (EC.3.4.23.3), the item O=C(O[C@@H]1Cc2c(O)cc(O)cc2O[C@@H]1c1cc(O)c(O)c(O)c1)c1cc(O)c(O)c(O)c1 showed pIC50 equal to 5.02

Data provenance: paper PMC4213485
